test system: SF-539; experiment: NCI tumour cell line growth inhibition, 48 h
Active and inactive are the calls of the source. No stated cut-off is given here; in the data, active = GI50 up to about 1.1 µM and inactive = higher.
Please answer using one outcome listed in 1 = active, 0 = inactive

{"compound": "Cc1ccccc1NC(=O)C(=O)C(C#N)c1ccc(Cl)cc1 (stereo not drawn)", "qualitative-label": 0}

# ---- query compound ----
// return assay outcome for O=NN(CCCl)C(=O)N[C@H]1CC[C@@H](C(=O)O)CC1 0

###

Task for the reader: assign each of the following compounds its reported GI50.
test system: KM12; assay: NCI tumour cell line growth inhibition, 48 h
Active and inactive are the calls of the source. Cut-off read from the data, not from the text of the source: active = GI50 up to about 1.1 µM and inactive = higher.

Reference set, count: 4
{"smiles-notation": "C=C(C)[C@H]1CC(=O)/C(C)=C\\CC/C(C)=C/CC[C@@]2(C)O[C@@H]2C1", "quantity-kind": "GI50", "endpoint-result": "20.8 µM (inactive)"}
{"smiles-notation": "CC(C)(C)C1=CC(=N/N=c2\\scc(-c3ccccc3)n2-c2ccccc2)C=C(C(C)(C)C)C1=O", "quantity-kind": "GI50", "endpoint-result": "> 100 µM (inactive)"}
{"smiles-notation": "O=[N+]([O-])C(=C(N1CCOCC1)N1CCOCC1)/C(Cl)=C(\\Cl)[N+](=O)[O-]", "quantity-kind": "GI50", "endpoint-result": "16.3 µM (inactive)"}
{"smiles-notation": "NC(=O)C12CC3CC(CC(Br)(C3)C1)C2", "quantity-kind": "GI50", "endpoint-result": "> 100 µM (inactive)"}

Attention now shifts to the item below.
Reported GI50, compound N/C(=N\O)N/N=C\c1cc([N+](=O)[O-])cc([N+](=O)[O-])c1O : ____ 2.94 µM (inactive)

###

system: DLD-1; assay: NCI tumour cell line growth inhibition, 48 h
The source made the active and inactive calls. Rule as the data show it: active = GI50 up to about 1.1 µM and inactive = higher.
quantity-kind: GI50

Reference set, count: 3
{"compound": "CCSC1(SCC)CCN(/C=N/C(C)(C)C)C1", "endpoint-result": "62.4 µM (inactive)"}
{"compound": "Cn1cnc([N+](=O)[O-])c1SC1=NCCS1", "endpoint-result": "31.4 µM (inactive)"}
{"compound": "Cc1ccccc1-n1c(CCl)nc2ccc(Br)cc2c1=O", "endpoint-result": "3.82 µM (inactive)"}

// batch mode: one GI50 value per listed entry
1. CC(C)(C)CC(C)(C)c1cc2c(O)c(c1)Cc1cc(C(C)(C)CC(C)(C)C)cc(c1O)Cc1cc(C(C)(C)CC(C)(C)C)cc(c1O)Cc1cc(C(C)(C)CC(C)(C)C)cc(c1O)Cc1cc(C(C)(C)CC(C)(C)C)cc(c1O)Cc1cc(C(C)(C)CC(C)(C)C)cc(c1O)Cc1cc(C(C)(C)CC(C)(C)C)cc(c1O)Cc1cc(C(C)(C)CC(C)(C)C)cc(c1O)C2
2. COc1cc2c(cc1OC)-c1c(cnn1C1OC(COC(C)=O)C(OC(C)=O)C(OC(C)=O)C1OC(C)=O)CC2 (configuration not stated)
3. Cc1nn2c(=O)n(-c3cccc(-n4nnc5c(-c6ccccc6)c(C)nn5c4=O)c3C)nnc2c1-c1ccccc1
4. Cc1ccc(S(=O)(=O)N/N=C(/CC(=O)c2c(C)[n+]([O-])c3ccccc3[n+]2[O-])C(=O)Nc2ccccc2C)cc1

1. > 100 µM (inactive)
2. > 100 µM (inactive)
3. 22.8 µM (inactive)
4. > 100 µM (inactive)

###

Task for the reader: assign each of the following compounds its reported GI50.
test system: RXF 393; test: NCI tumour cell line growth inhibition, 48 h
Active and inactive are the calls of the source. Cut-off read from the data, not from the text of the source: active = GI50 up to about 1.1 µM and inactive = higher.

{"compound": "Nc1nn(CC(O)CO)c(=O)s1 (stereo unspecified)", "GI50": "> 100 µM (inactive)"}
{"compound": "CC12CC3c4ccccc4CN1C3(c1ccccc1)OC2=O (stereo unspecified)", "GI50": "> 100 µM (inactive)"}
{"compound": "CCNC(=S)Nc1c(C#N)c2n(c1C(=O)OCC)CCCCC2", "GI50": "33.1 µM (inactive)"}

// batch mode: one GI50 value per listed entry
1. O=C(O)c1ccc(-c2nc3cc(Cl)ccc3[nH]2)cc1
2. O=C(CN1C(=O)c2ccccc2C1=O)NC1(C(=O)O)CCCC1
3. COc1ccc(-c2cc(=O)c3c(OC)cccc3o2)c(OC)c1OC
4. CC[C@H]1C=CCC[C@@]2(C[C@@H]3CC[C@H]4[C@H](C(=O)OCCCCCCCCCCCCCCCC(=O)N(CCCN)C[C@@H](O)CCN)[C@]5(CCC[C@@H](C)O5)NC(=[N+]34)N2)O1
5. O=C(Nc1nncs1)NS(=O)(=O)n1c(=S)sc2ccccc21

["> 100 µM (inactive)", "> 100 µM (inactive)", "39 µM (inactive)", "1.6 µM (inactive)", "> 100 µM (inactive)"]

// batch mode: one GI50 value per listed entry
1. Brc1ccccc2cc(-c3ccccc3)nc1-2
2. COC(=O)c1cccc2cccc(C(=O)Nc3ccc(Cl)cc3)c12
3. CC(=O)Oc1cc2c(=O)oc3c(OC(C)=O)c(OC(C)=O)c(OC(C)=O)c4c(=O)oc(c1OC(C)=O)c2c34

1. 2.09 µM (inactive)
2. > 100 µM (inactive)
3. 6.18 µM (inactive)

###

system: XF498; assay: NCI tumour cell line growth inhibition, 48 h
The source made the active and inactive calls. Rule as the data show it: active = GI50 up to about 1.1 µM and inactive = higher.
Please answer using one outcome listed in yes for active, no for inactive

// return assay outcome for CC#C[I+]c1ccccc1 no

// return assay outcome for CC1(C)CC(Nc2ccc(Nc3ccccc3)cc2)CC(C)(C)N1 no

// return assay outcome for O=C(NCCCCCCCCCCCCNC(=O)c1cccc2ccccc12)c1cccc2ccccc12 no

// return assay outcome for COc1cc(C2c3cc4c(cc3[C@@H](Nc3cccc(C(C)=O)c3)C3COC(=O)[C@H]23)OCO4)cc(OC)c1O (stereo not given in full) yes

// return assay outcome for O=C1N(c2ccccc2)C(=O)C2(SC=NN2Cc2ccccc2)N1c1ccccc1 (stereo not given) no

// return assay outcome for C/C([O-])=C(/c1nc(-c2ccc([N+](=O)[O-])o2)no1)[n+]1cc(C)ccc1C no

// return assay outcome for O=C(Nc1ccccc1C(=O)NC(=O)c1ccccc1NC(=O)c1ccccc1)c1ccccc1 no

// return assay outcome for C=C(C)C1CCC2(C)CC1c1c(c(C)cc3c1[nH]c1ccccc13)O2 (stereo not given) no

// return assay outcome for Cc1cn(C2CC(n3cncn3)C(C(C)O)O2)c(=O)[nH]c1=O (stereo not given) no

// return assay outcome for COC(=O)/C1=C/C2CC(/C=C(/c3ccccc3)C(=O)O1)C2 no

###

Task for the reader: assign each of the following compounds its reported GI50.
test system: DLD-1; experiment: NCI tumour cell line growth inhibition, 48 h
Activity calls are given as the source filed them. Cut-off read from the data, not from the text of the source: active = GI50 up to about 1.1 µM and inactive = higher.

Reference set, count: 4
{"compound": "O=S(=O)(N/N=C/c1cccc(Cl)c1Cl)c1ccccc1", "GI50": "45.4 µM (inactive)"}
{"compound": "Cc1cc(Cl)ccc1NC(=O)CCCC(=O)C1C/C(=N/O)CC/C1=N\\O (stereo not given)", "GI50": "> 100 µM (inactive)"}
{"compound": "O=C(NC(c1ccccc1)C(O)C(=O)OCc1ccc2c(c1)C(=O)c1ccccc1C2=O)c1ccccc1 (stereo not given)", "GI50": "21.2 µM (inactive)"}
{"compound": "N#CC(c1ccc(Cl)cc1)c1cccc(C(C#N)c2ccc(Cl)cc2)n1 (stereo not given)", "GI50": "37.2 µM (inactive)"}

Attention now shifts to the item below.
Reported GI50, compound N/C(=N\N=C=C1C(=O)Nc2ccc(F)cc21)NO : ____ > 100 µM (inactive)

###

test system: SNB-75; experiment: NCI tumour cell line growth inhibition, 48 h
Active and inactive are the calls of the source. Rule as the data show it: active = GI50 up to about 1.1 µM and inactive = higher.
Please answer using one outcome listed in active, inactive

{"compound": "CC(C)(C)CC(C)(C)c1cc2c(O)c(c1)Cc1cc(C(C)(C)CC(C)(C)C)cc(c1O)Cc1cc(C(C)(C)CC(C)(C)C)cc(c1O)Cc1cc(C(C)(C)CC(C)(C)C)cc(c1O)Cc1cc(C(C)(C)CC(C)(C)C)cc(c1O)Cc1cc(C(C)(C)CC(C)(C)C)cc(c1O)Cc1cc(C(C)(C)CC(C)(C)C)cc(c1O)Cc1cc(C(C)(C)CC(C)(C)C)cc(c1O)C2", "qualitative-label": "inactive"}

// return assay outcome for C=C1OC(=O)[C@]2([C@@H](/C=C/C)C=CC(=O)[C@H]2O)[C@@H]1O inactive

// return assay outcome for C=CCC1([C@H](C)[C@@H](OC(C)=O)c2cc(OC)c(OC)c(OC)c2)C[C@@H](OC)CCC1=O (some centres not stated) inactive

// return assay outcome for CC(=O)O[C@H]1C[C@]2(O)[C@@H]3CC[C@@H]4C[C@@H](O)CC[C@]4(C)[C@H]3CC[C@]2(C)[C@H]1C1=CC(=O)OC1 active

// return assay outcome for COc1ccc(/C=C2\N=C3Sc4c([nH]cnc4=O)N3C2=O)cc1 inactive

// return assay outcome for Cc1nc(O)c(O)c(CN2CCCCC2)n1 inactive

// return assay outcome for c1cc2c(cc1[C@@H]1OC[C@@H]3[C@H]1CO[C@H]3c1ccc3c(c1)OCO3)OCO2 inactive
